Reported inhibition at 0.2 µM values follow for various molecules
Molecular target: canine TRPM8 (Canis lupus familiaris)
Assay: In Vitro Canine TRPM8 Functional Assay (intracellular Ca2+ fluorescence, icilin challenge)
Format: cell-based
Conditions: HEK293, @ 0.2 μM; HEK293 cells stably expressing canine TRPM8; read-out: % Inh (%) @ 0.2 μM
Answer with the value and then the unit.

Recorded results for 2 molecules are shown here.
Consider the molecule shown here: `Cc1c(N(Cc2ccc(F)c(C(F)(F)F)c2)S(=O)(=O)c2ccccc2)nc2ccc(Cl)cn12` What is its recorded inhibition at 0.2 µM? 100%

Quick check: inhibition at 0.2 µM of `O=S(=O)(c1ccc(N2CCOCC2)nc1)N(Cc1ccc(OC(F)(F)F)cc1)c1nc2ccccn2c1Br` ? 100%

More entries:
Bench note: what inhibition at 0.2 µM did `Cc1cccn2c(C)c(N(Cc3ccc(C(F)(F)F)c(F)c3)S(=O)(=O)c3ccccc3)nc12` show? 100%

Any idea what inhibition at 0.2 µM was measured for `Cc1cccn2c(C)c(N(Cc3cccc(C(F)(F)F)c3)S(=O)(=O)c3ccccc3)nc12` ? 100%

Which inhibition at 0.2 µM is reported for this molecule? `Cc1cccc2nc(N(Cc3ccc(F)c(C(F)(F)F)c3)S(=O)(=O)c3ccccc3)c(C)n12` 99%

Name the recorded inhibition at 0.2 µM for `O=S(=O)(c1ccc(-n2cccn2)cc1)N(Cc1cccc(C(F)(F)F)c1)c1nc2ccccn2c1Cl` . 99%

Give its inhibition at 0.2 µM value. Item: `CCc1c(N(Cc2ccc(C(F)(F)F)c(F)c2)S(=O)(=O)c2ccc(N3CCOCC3)nc2)nc2ccc(Cl)cn12` 86%

I would be grateful if you could share the reported inhibition at 0.2 µM for `CCc1c(N(Cc2ccc(C(F)(F)F)c(F)c2)S(=O)(=O)c2ccccc2)nc2c(C(F)(F)F)cccn12` . 99%

---

Target: canine TRPM8 (Canis lupus familiaris)
Assay: In Vitro Canine TRPM8 Functional Assay (intracellular Ca2+ fluorescence, icilin challenge)
Conditions: HEK293 cells stably expressing canine TRPM8; icilin at ~80% maximal response
Protocol: The functional activity of compounds of the formula (I) was determined by measuring changes in intracellular calcium concentration using a Ca^2+-sensitive fluorescent dye. The changes in fluorescent signal were monitored by a fluorescence plate reader, either a FLIPR™ (Molecular Devices) or FDSS (Hamamatsu). […]
Entries whose IC50 is below 10 nM take 1; entries at or above 10 nM take 0.

Use these answered entries as a reference point.
Say whether its IC50 is strictly beneath 10 nM. Entry: `Cc1cccn2c(C)c(N(Cc3ccc(F)c(C(F)(F)F)c3)S(C)(=O)=O)nc12` 0

For this molecule, is IC50 lower than 10 nM? `CC(C)c1c(N(Cc2cccc(C(F)(F)F)c2)S(=O)(=O)c2ccccc2)nc2ccccn12` 1

Answer whether the molecule `CCc1c(N(Cc2ccc(C(F)(F)F)c(F)c2)S(=O)(=O)c2ccccc2)nc2c(C(F)(F)F)cccn12` has IC50 strictly less than 10 nM 0

Problem: For the molecule `Cc1c(N(Cc2cccc(OC(F)(F)F)c2)S(=O)(=O)c2ccccc2)nc2ccc(Cl)cn12` , is IC50 under 10 nM? 0

Problem: For the molecule `Cc1c(N(Cc2ccc(C(F)(F)F)c(F)c2)S(=O)(=O)c2ccc(-n3cccn3)cc2)nc2ccc(Cl)cn12` , is IC50 under 10 nM? 0

Further cases:
Take the molecule `O=S(=O)(c1ccc(N2CCOCC2)nc1)N(Cc1ccc(F)c(C(F)(F)F)c1)c1nc2ccccn2c1Br` and say whether its IC50 is less than 10 nM. 0

Quick check: does `Cc1c(N(Cc2ccc(F)c(C(F)(F)F)c2)S(=O)(=O)c2ccc(-n3cccn3)cc2)nc2ccc(Cl)cn12` have IC50 under 10 nM? 0

For this molecule, is IC50 lower than 10 nM? `Cc1c(N(Cc2ccc(OC(F)(F)F)cc2)S(=O)(=O)c2ccccc2)nc2ccc(F)cn12` 0

Decide: IC50 of `Cc1c(N(Cc2ccc(F)c(C(F)(F)F)c2)S(=O)(=O)c2ccccc2)nc2ccc(Cl)cn12` strictly below 10 nM? 0

hey, is IC50 for `Cc1c(N(Cc2ccc(F)c(C(F)(F)F)c2)S(=O)(=O)c2ccccc2)nc2cc(Cl)ccn12` lower than 10 nM or not? 0

I wonder whether `O=S(=O)(c1ccccc1)N(Cc1ccc(C(F)(F)F)c(F)c1)c1cn2ccccc2n1` has IC50 below 10 nM. Can you tell? 0

Please check: IC50 for `O=S(=O)(c1ccc(-n2cccn2)cc1)N(Cc1ccc(F)c(C(F)(F)F)c1)c1nc2ccccn2c1Br` , strictly under 10 nM or not? 1

---

Target: canine TRPM8 (Canis lupus familiaris)
Test: In Vitro Canine TRPM8 Functional Assay (intracellular Ca2+ fluorescence, icilin challenge)
Type: cell-based
Conditions: HEK293, @ 0.2 μM; HEK293 cells stably expressing canine TRPM8; read-out: % Inh (%) @ 0.2 μM
Measurement type: inhibition at 0.2 µM
Hey, just the number and the unit after it is fine.

Item under review: `CCc1c(N(CCC(F)(F)F)S(=O)(=O)c2ccccc2)nc2c(C(F)(F)F)cccn12` . Reported inhibition at 0.2 µM? 83%

Others:
Looking for the measured inhibition at 0.2 µM of `O=S(=O)(c1ccccc1)N(Cc1ccc(C(F)(F)F)c(F)c1)c1nc2ccc(Cl)cn2c1Cl` , can you help? 90%

I am curious: what inhibition at 0.2 µM value has been reported for `O=S(=O)(c1ccc(N2CCOCC2)nc1)N(Cc1ccc(C(F)(F)F)cc1)c1nc2ccccn2c1Cl` ? 98%

Return reported inhibition at 0.2 µM; argument: `O=S(=O)(c1ccc(N2CCOCC2)nc1)N(Cc1cccc(C(F)(F)F)c1)c1nc2ccccn2c1Cl` 97%

Quick one: inhibition at 0.2 µM for `O=S(=O)(c1ccc(-n2cccn2)cc1)N(Cc1ccc(F)c(C(F)(F)F)c1)c1nc2ccccn2c1Cl` ? 99%

---

Biological target: canine TRPM8 (Canis lupus familiaris, UniProt Q1A7N1)
Sequence (Q1A7N1 1-1104): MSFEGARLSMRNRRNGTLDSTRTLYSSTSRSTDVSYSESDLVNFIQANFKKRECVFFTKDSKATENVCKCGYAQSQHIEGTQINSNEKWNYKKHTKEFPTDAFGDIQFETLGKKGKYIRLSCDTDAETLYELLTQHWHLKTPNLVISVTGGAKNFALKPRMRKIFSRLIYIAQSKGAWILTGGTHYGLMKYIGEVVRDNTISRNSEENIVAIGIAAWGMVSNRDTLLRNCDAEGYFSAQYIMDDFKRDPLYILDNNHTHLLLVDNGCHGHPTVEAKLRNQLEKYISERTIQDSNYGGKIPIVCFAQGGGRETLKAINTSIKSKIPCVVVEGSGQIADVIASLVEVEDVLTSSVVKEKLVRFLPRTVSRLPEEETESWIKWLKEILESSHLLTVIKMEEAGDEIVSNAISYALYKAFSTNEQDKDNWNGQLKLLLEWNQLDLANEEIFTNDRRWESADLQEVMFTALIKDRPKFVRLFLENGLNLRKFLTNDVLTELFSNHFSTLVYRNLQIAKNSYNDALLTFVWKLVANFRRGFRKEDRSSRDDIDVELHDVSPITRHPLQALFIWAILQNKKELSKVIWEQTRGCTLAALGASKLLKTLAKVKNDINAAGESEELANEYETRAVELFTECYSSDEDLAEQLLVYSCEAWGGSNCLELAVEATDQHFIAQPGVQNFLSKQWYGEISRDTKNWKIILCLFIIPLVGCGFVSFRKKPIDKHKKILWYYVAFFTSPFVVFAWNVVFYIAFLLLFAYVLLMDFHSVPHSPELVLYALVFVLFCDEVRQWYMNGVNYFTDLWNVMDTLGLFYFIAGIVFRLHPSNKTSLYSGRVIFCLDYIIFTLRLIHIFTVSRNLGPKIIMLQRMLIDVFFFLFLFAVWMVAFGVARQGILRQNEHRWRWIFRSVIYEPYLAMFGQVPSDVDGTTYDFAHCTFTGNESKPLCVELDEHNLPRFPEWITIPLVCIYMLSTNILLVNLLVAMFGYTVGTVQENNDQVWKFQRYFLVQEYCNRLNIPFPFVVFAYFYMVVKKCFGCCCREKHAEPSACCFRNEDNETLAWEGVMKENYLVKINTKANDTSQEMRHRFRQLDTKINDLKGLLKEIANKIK
Test: In Vitro Canine TRPM8 Functional Assay (intracellular Ca2+ fluorescence, icilin challenge)
Details: HEK293 cells stably expressing canine TRPM8; icilin at ~80% maximal response
Measurement type: pIC50
Keep it numeric: pIC50 is minus log10 of the concentration in mol/L.

// known answers, use as guide
Need pIC50, item `Cc1cccn2c(C)c(N(Cc3cccc(C(F)(F)F)c3)S(=O)(=O)c3ccccc3)nc12` 8.01

// pIC50 lookup, key: `Cc1cccn2c(C)c(N(Cc3ccc(OC(F)(F)F)cc3)S(=O)(=O)c3ccccc3)nc12` 8.00

// next entry
Return reported pIC50; argument: `Cc1ccn2c(C)c(N(Cc3ccc(OC(F)(F)F)cc3)S(=O)(=O)c3ccccc3)nc2c1` 8.00
